Target: Top1 (Homo sapiens, UniProt P11387)
Sequence (P11387 whole entry): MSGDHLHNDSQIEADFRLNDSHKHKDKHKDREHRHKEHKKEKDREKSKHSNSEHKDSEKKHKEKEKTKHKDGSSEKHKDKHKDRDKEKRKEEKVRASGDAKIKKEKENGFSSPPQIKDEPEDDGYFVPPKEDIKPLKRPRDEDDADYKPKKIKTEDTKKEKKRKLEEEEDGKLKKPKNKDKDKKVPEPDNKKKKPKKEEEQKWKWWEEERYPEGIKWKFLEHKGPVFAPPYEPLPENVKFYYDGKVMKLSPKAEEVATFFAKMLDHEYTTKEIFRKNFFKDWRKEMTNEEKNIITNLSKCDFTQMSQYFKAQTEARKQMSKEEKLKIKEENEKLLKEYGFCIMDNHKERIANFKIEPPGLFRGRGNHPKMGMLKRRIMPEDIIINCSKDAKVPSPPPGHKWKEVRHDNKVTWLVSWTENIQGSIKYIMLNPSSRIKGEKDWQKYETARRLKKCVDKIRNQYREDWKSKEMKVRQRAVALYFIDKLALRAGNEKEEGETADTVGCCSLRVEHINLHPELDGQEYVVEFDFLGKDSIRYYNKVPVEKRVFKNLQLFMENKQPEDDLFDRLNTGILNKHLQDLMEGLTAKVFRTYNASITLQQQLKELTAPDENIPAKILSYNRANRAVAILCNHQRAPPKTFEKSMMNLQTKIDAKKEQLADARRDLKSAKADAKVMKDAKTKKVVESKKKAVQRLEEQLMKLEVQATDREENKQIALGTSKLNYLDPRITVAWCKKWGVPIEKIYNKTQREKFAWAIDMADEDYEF
Test: Top1-mediated DNA cleavage assay
Assay type: biochemical
Settings: DNA cleavage relative to 1 μM MJ-III-65 (19) and 1 μM camptothecin (18); Table 1
property name: Enzyme Inhibitory Activity Top1

• COc1cnc2c(c1)C(=O)c1c-2n(CCCN2CCNCC2)c(=O)c2cc([N+](=O)[O-])ccc12 [Compound 10] = ++
• COc1cnc2c(c1)C(=O)c1c-2n(CCCBr)c(=O)c2cc([N+](=O)[O-])ccc12 [Compound 7] = ++
• COc1cnc2c(c1)C(=O)c1c-2n(CCCN2CCN(C)CC2)c(=O)c2cc([N+](=O)[O-])ccc12 [Compound 9] = ++
• CCNCCCn1c2c(c3ccc([N+](=O)[O-])cc3c1=O)C(=O)c1cc(OC)cnc1-2 [Compound 15] = ++++

Input: Give Enzyme Inhibitory Activity Top1 for the following compound: COc1cnc2c(c1)C(=O)c1c-2n(CCCNC(C)C)c(=O)c2cc([N+](=O)[O-])ccc12 [Compound 14]
Output: ++++

====

Please respond with reported melting point for every item in the list.

Input: Give melting point for the following molecule: COc1cnc2c(c1)C(=O)c1c-2n(CCCN2CCN(CCO)CC2)c(=O)c2cc([N+](=O)[O-])ccc12
Output: 214 to 216 °C

Input: Give melting point for the following molecule: CNCCCn1c2c(c3ccc([N+](=O)[O-])cc3c1=O)C(=O)c1cc(OC)cnc1-2
Output: 259 to 262 °C

Input: Give melting point for the following molecule: COc1cnc2c(c1)C(=O)c1c-2n(CCCBr)c(=O)c2cc([N+](=O)[O-])ccc12
Output: 170 to 172 °C

Input: Give melting point for the following molecule: COc1cnc2c(c1)C(=O)c1c-2n(CCCN2CCC(N)CC2)c(=O)c2cc([N+](=O)[O-])ccc12
Output: 258 to 260 °C

Input: Give melting point for the following molecule: COc1cnc2c(c1)C(=O)c1c-2n(CCCNC(C)C)c(=O)c2cc([N+](=O)[O-])ccc12
Output: 278 to 280 °C

Input: Give melting point for the following molecule: COc1cnc2c(c1)C(=O)c1c-2n(CCCNC2=NCCS2)c(=O)c2cc([N+](=O)[O-])ccc12
Output: 175 to 177 °C

Input: Give melting point for the following molecule: COc1cnc2c(c1)C(=O)c1c-2n(CCCNC2=NCCS2)c(=O)c2cc(F)ccc12 [Compound 17c]
Output: 226 to 250 °C

Input: Give melting point for the following molecule: CNCCCn1c2c(c3ccc(F)cc3c1=O)C(=O)c1cc(OC)cnc1-2 [Compound 17g]
Output: 259 to 265 °C

====

Biological target: recombinant human TDP2 (Homo sapiens, UniProt O95551)
Experiment: Recombinant Tdp2 assay
Format: biochemical
pIC50: −log10 of the molar value.
property name: pIC50

Input: Give pIC50 for the following compound: CC[C@@]1(O)C(=O)OCc2c1cc1n(c2=O)Cc2cc3ccccc3nc2-1 [Compound 18, camptothecin, reference compound]
Output: < 3.95

====

Target: recombinant human TDP2 (Homo sapiens, UniProt O95551)
Sequence (O95551 1-362): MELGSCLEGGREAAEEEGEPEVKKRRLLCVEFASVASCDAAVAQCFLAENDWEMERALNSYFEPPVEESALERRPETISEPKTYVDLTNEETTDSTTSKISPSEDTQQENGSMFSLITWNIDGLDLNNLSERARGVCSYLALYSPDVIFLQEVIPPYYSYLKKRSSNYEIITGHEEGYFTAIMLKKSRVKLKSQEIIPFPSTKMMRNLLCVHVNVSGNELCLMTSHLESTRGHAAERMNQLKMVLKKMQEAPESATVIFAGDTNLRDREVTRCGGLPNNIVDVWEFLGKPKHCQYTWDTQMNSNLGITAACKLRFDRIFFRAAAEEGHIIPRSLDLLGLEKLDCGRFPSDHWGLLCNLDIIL
Experiment: Recombinant Tdp2 assay
Assay type: biochemical
Conditions: determined in duplicate; Table 2; read-out: Enzyme Inhibitory Activity Tdp2 (IC50)
property name: IC50

Input: Give IC50 for the following molecule: COc1cnc2c(c1)C(=O)c1c-2n(CCCN2CCC(O)CC2)c(=O)c2cc(Cl)ccc12 [Compound 16d]
Output: > 111 µM

Input: Give IC50 for the following molecule: COc1cnc2c(c1)C(=O)c1c-2n(CCCN2CCNCC2)c(=O)c2cc(Cl)ccc12 [Compound 16e]
Output: > 111 µM

Input: Give IC50 for the following molecule: COc1cnc2c(c1)C(=O)c1c-2n(CCCn2ccnc2)c(=O)c2cc(Cl)ccc12 [Compound 16b]
Output: > 111 µM

Input: Give IC50 for the following molecule: COc1cnc2c(c1)C(=O)c1c-2n(CCCn2ccnc2)c(=O)c2cc(F)ccc12 [Compound 17b]
Output: > 111 µM

====

Molecular target: Top1 (Homo sapiens, UniProt P11387)
Test: Top1-mediated DNA cleavage assay
Assay type: biochemical
Parameters: key to the marks not given beside the values
Details: series 1
property name: Top1 inhibitory activity level

Past entries and their recorded results:
• COc1cnc2c(c1)C(=O)c1c-2n(CCCN2CCNCC2)c(=O)c2cc([N+](=O)[O-])ccc12 = ++
• COc1cnc2c(c1)C(=O)c1c-2n(CCCNCCN2CCOCC2)c(=O)c2cc([N+](=O)[O-])ccc12 = +++
• COc1cnc2c(c1)C(=O)c1c-2n(CCCN2CCN(CCO)CC2)c(=O)c2cc([N+](=O)[O-])ccc12 = +++
• COc1cnc2c(c1)C(=O)c1c-2n(CCCN2CCN(C)CC2)c(=O)c2cc([N+](=O)[O-])ccc12 = ++
• COc1cnc2c(c1)C(=O)c1c-2n(CCCNC(C)C)c(=O)c2cc([N+](=O)[O-])ccc12 = ++++

Input: Give Top1 inhibitory activity level for the following compound: CCNCCCn1c2c(c3ccc([N+](=O)[O-])cc3c1=O)C(=O)c1cc(OC)cnc1-2
Output: ++++

Input: Give Top1 inhibitory activity level for the following compound: COc1cnc2c(c1)C(=O)c1c-2n(CCCNC2=NCCS2)c(=O)c2cc([N+](=O)[O-])ccc12
Output: ++++

Input: Give Top1 inhibitory activity level for the following compound: COc1cnc2c(c1)C(=O)c1c-2n(CCCN2CCCC2)c(=O)c2cc([N+](=O)[O-])ccc12
Output: ++

Input: Give Top1 inhibitory activity level for the following compound: CNCCCn1c2c(c3ccc([N+](=O)[O-])cc3c1=O)C(=O)c1cc(OC)cnc1-2
Output: +++

Input: Give Top1 inhibitory activity level for the following compound: COc1cnc2c(c1)C(=O)c1c-2n(CCCBr)c(=O)c2cc([N+](=O)[O-])ccc12
Output: ++

Input: Give Top1 inhibitory activity level for the following compound: COc1cnc2c(c1)C(=O)c1c-2n(CCCN2CCC(N)CC2)c(=O)c2cc([N+](=O)[O-])ccc12
Output: ++

====

Please respond with reported IC50 for every item in the list.
Biological target: recombinant human TDP2 (Homo sapiens, UniProt O95551)
Experiment: Recombinant Tdp2 assay
Assay type: biochemical
Conditions: semiquantitative scale, in duplicate; Table 1; read-out: Enzyme Inhibitory Activity Tdp2

Input: Give IC50 for the following compound: COc1cnc2c(c1)C(=O)c1c-2n(CCCN2CCNCC2)c(=O)c2cc([N+](=O)[O-])ccc12 [Compound 10]
Output: 37 to 111 µM

Input: Give IC50 for the following compound: COc1cc2c3c(n(CCCNCCO)c(=O)c2cc1OC)-c1cc2c(cc1C3=O)OCO2 [Compound 19, reference compound]
Output: 1 to 12 µM

Input: Give IC50 for the following compound: CCNCCCn1c2c(c3ccc([N+](=O)[O-])cc3c1=O)C(=O)c1cc(OC)cnc1-2 [Compound 15]
Output: 37 to 111 µM

====

Target: Tdp1 (Homo sapiens, UniProt Q9NUW8)
Sequence (Q9NUW8 whole entry): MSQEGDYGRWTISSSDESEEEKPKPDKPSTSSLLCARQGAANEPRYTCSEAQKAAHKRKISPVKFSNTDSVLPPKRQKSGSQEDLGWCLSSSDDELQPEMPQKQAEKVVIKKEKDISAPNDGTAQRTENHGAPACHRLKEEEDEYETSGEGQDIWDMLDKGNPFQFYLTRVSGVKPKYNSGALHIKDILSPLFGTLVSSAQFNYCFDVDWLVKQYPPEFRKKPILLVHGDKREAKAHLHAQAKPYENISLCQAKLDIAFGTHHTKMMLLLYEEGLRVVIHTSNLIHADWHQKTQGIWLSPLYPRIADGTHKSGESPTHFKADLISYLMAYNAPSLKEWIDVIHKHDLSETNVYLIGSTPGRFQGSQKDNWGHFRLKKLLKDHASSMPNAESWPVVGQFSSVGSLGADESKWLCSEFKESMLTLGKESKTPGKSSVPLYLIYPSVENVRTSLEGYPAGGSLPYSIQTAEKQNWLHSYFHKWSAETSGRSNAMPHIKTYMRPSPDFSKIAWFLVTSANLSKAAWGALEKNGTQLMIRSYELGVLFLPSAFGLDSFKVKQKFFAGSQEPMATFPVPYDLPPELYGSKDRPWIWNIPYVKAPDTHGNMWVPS
Assay: Recombinant Tdp1 assay
Assay type: biochemical
Details: determined in duplicate; Table 2; read-out: Enzyme Inhibitory Activity Tdp1 (IC50)
Please respond with reported IC50 for every item in the list.

Input: Give IC50 for the following compound: COc1cnc2c(c1)C(=O)c1c-2n(CCCNC(C)C)c(=O)c2cc(Cl)ccc12 [Compound 16f]
Output: 33.3 µM

Input: Give IC50 for the following compound: COc1cnc2c(c1)C(=O)c1c-2n(CCCn2ccnc2)c(=O)c2cc(F)ccc12 [Compound 17b]
Output: > 111 µM

Input: Give IC50 for the following compound: COc1cnc2c(c1)C(=O)c1c-2n(CCCN2CCOCC2)c(=O)c2cc(F)ccc12 [Compound 17a]
Output: > 111 µM

Input: Give IC50 for the following compound: CCNCCCn1c2c(c3ccc(Cl)cc3c1=O)C(=O)c1cc(OC)cnc1-2 [Compound 16h]
Output: 22.2 µM

Input: Give IC50 for the following compound: COc1cnc2c(c1)C(=O)c1c-2n(CCCN2CCN(C)CC2)c(=O)c2cc(Cl)ccc12 [Compound 16j]
Output: > 111 µM

Input: Give IC50 for the following compound: COc1cnc2c(c1)C(=O)c1c-2n(CCCN2CCCC2)c(=O)c2cc(F)ccc12 [Compound 17i]
Output: > 111 µM

Input: Give IC50 for the following compound: COc1cnc2c(c1)C(=O)c1c-2n(CCCNC2=NCCS2)c(=O)c2cc(Cl)ccc12 [Compound 16c]
Output: 11.9 µM

Input: Give IC50 for the following compound: CCNCCCn1c2c(c3ccc(F)cc3c1=O)C(=O)c1cc(OC)cnc1-2 [Compound 17h]
Output: > 111 µM
